Data provenance: PubChem BioAssay

# Assay Protocol: viability loss with induced miR-34 in A549 – imaging, A549 dox-inducible miR-34, nuclei and caspase counts, primary screen (AID 1347080); note: test concentration not given here
# Run Conditions: A549 miR-34 inducible, Hoechst nuclei count, 48 h; measured here: total cells with miR-34 induction; stronger effect = lower value
Form field: cell count (one value per entry).
Note: the reply should be a number with no unit written.

Given N=C(N)S/C=C\C(=O)O , state its recorded cell count.
8330

Given CCCCC[C@H](O)/C=C/[C@H]1[C@H](O)CC(=O)[C@@H]1C/C=C\CCCC(=O)OC , state its recorded cell count.
5670

Given CN(C)C(=O)C(=O)c1cn(C)c2cc(Cl)c(C(=O)N3CCC(Cc4ccc(F)cc4)CC3)cc12 , state its recorded cell count.
4920
